# Target: T1, human SIRPα v1-Fc (SIRPα1 extracellular domain fused to human IGHG1_Fc) (human, UniProt P78324 31-373; P0DOX5 223-449 = IgG part)
# T1 construct: also called V1 (e.g. SIRPα1); SIRPα V1: DLN
# Protocol description: BLI Octet, antigen-Fc on biosensor;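 further: antigen captured on the biosensor tip and then immersed in solutions of the test antibodies, which act as the analyte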
pKd: −log10 of the molar value.
Assay metric: pKd

>  <Binder>
SIRPAB-7 (antibody, human IgG1, kappa, V domains shown) VH: QVQLQESGPGLVKPSQTLSLTCTVSGGSISSGEYYWEWIRQHPGKGLEWIGYIYSSGFTYYNPSLKSRVTISVDTSKNQFSLKLSSVTAADTAVYYCAREGLDGSYGSSAWGQGTLVTVSS VL: DIQLTQSPSSLSASVGDRVTITCQASQDISNYLNWYQQKPGKAPKLLIYDASNLETGVPSRFSGSGSGTDFTFTISSLQPEDIATYYCQQFAYLPYTFGGGTKVEIKR

>  <Reading>
9.82

$$$$
>  <Binder>
SIRPAB-9 (antibody, human IgG1, kappa, V domains shown) VH: QVQLVQSGAEVKKPGASVKVSCKASGYTFGGYGISWVRQAPGQGLEWMGWISAYGGETNYAQKLQGRVTMTTDTSTSTAYMELRSLRSDDTAVYYCAREAGSSWYDFDLWGRGTLVTVSS VL: DIQMTQSPSSVSASVGDRVTITCRASQGISSWLAWYQQKPGKAPKLLIYAASNLQSGVPSRFSGSGSGTDFTLTISSLQPEDFATYYCQQGASFPITFGGGTKVEIKR

>  <Reading>
9.15

$$$$
>  <Binder>
SIRPAB-5 (antibody, human IgG1, kappa, V domains shown) VH: QVQLQESGPGLVKPSQTLSLTCTVSGGSISSGPAYWSWIRQHPGKGLEWIGTIYYSGSTFYNPSLKSRVTISVDTSKNQFSLKLSSVTAADTAVYYCAREGYHSGMDVWGQGTTVTVSS VL: DIQMTQSPSSLSASVGDRVTITCQASQDISNYLNWYQQKPGKAPKLLIYDASNLATGVPSRFSGSGSGTDFTFTISSLQPEDIATYYCQQFAYLPWTFGGGTKVEIKR

>  <Reading>
9.78

$$$$

Reference source for all entries: patent US20200102387A1
